- tested.target: TDO (Homo sapiens, UniProt P48775)
- Sequence (P48775 whole entry): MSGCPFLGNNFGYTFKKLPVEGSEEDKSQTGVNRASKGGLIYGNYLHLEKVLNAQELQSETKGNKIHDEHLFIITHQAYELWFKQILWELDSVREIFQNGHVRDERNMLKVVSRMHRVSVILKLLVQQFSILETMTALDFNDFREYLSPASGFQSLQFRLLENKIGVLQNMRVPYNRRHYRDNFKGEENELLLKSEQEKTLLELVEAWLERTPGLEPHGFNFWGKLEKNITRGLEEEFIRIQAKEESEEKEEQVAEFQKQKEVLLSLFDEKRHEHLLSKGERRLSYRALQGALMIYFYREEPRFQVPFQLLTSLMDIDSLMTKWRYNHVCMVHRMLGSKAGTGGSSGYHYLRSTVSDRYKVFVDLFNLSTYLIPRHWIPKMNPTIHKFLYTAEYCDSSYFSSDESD
- protocol.text: hTDO biochemical coupled assay
- measurement.conditions: 330 μM L-tryptophan, 17 minutes, room temperature; read-out: hTDO biochemical assay pIC50 (converted)
assay.readout: IC50

Specify measured IC50 for OC(Cc1ccccc1)c1cc(Cl)cc2[nH]ncc12 (stereo not drawn) [Compound 281] .
< 3.16 µM

More entries:
Quick one: give measured IC50 for CS(=O)(=O)N1CCN(c2cc(Cl)cc3c(N)n[nH]c23)CC1 [Compound 306]
> 100 µM

Give recorded IC50. CS(=O)(=O)N1CCN(c2cc(Cl)cc3[nH]ncc23)C2CCCCC21 (single isomer, unassigned) [Compound 386]
3.24 to 31.6 µM

Entry O=C1NC2(CCN(c3cc(Br)cc4[nH]ncc34)CC2)C(=O)N1Cc1ccccc1 [Compound 406] needs its IC50 filled in; supply it.
< 3.16 µM

Identify measured IC50 associated with CC1(C)CN(c2cc(Cl)cc3c(N)noc23)CCN1S(C)(=O)=O [Compound 317]
3.24 to 31.6 µM

Please supply the value of reported IC50 for the item CS(=O)(=O)NCCN1C(=O)NC2(CCN(c3cc(Cl)cc4[nH]ncc34)CC2)C1=O [Compound 416]
< 3.16 µM

State, in one line, measured IC50 of O=S(=O)(C1CC1)N1CCN(c2cccc3[nH]ncc23)CC1 [Compound 19]
3.24 to 31.6 µM

Let me know recorded IC50 for CS(=O)(=O)N1CC2(CCN(c3cc(Cl)cc4[nH]ncc34)CC2)C1 [Compound 351] , thanks.
< 3.16 µM

Entry CS(=O)(=O)N1CCN(c2cc(C(F)(F)F)cc3[nH]ncc23)C2CCCCC21 (stereo not drawn) [Compound 340] needs its IC50 filled in; supply it.
> 100 µM

Consider the molecule CN(c1cc(C2CCN(S(C)(=O)=O)CC2)c2cn[nH]c2c1)S(C)(=O)=O [Compound 338] and give its recorded IC50.
> 100 µM

Please report the measured IC50 for CC1(C)CCC(O)(c2cc(Cl)cc3[nH]ncc23)CC1 [Compound 427]
3.24 to 31.6 µM

Supply reported IC50 belonging to this molecule: CC(=O)N1CCC(CNC(=O)c2cc(Cl)cc3[nH]ncc23)CC1 [Compound 295]
> 100 µM

Give me measured IC50, please, for this molecule: CC(=O)N1CCC(c2cc(Cl)cc3[nH]ncc23)CC1(C)C (stereo not drawn) [Compound 400]
< 3.16 µM

Fill in IC50 for record O=C1CCC2(CCN1)CCN(c1cc(Cl)cc3[nH]ncc13)CC2 [Compound 394]
< 3.16 µM

Return the recorded IC50 value; entry: CN(C)C(=O)c1ccc(-c2cc(Cl)cc3[nH]ncc23)cc1 [Compound 255]
3.24 to 31.6 µM

Return IC50 for the following molecule: Clc1cc(C2CCCCC2)c2cn[nH]c2c1 [Compound 353]
< 3.16 µM

Please report the measured IC50 for O=C(Nc1cccc2[nH]ncc12)c1ccccc1 [Compound 9]
32.4 to 100 µM

Please supply the value of reported IC50 for the item O=S(=O)(C1CCCC1)N1CCN(c2cccc3[nH]ncc23)CC1 [Compound 17]
3.24 to 31.6 µM

----------
- tested.target: IDO (Homo sapiens, UniProt P14902)
- Sequence (P14902 whole entry): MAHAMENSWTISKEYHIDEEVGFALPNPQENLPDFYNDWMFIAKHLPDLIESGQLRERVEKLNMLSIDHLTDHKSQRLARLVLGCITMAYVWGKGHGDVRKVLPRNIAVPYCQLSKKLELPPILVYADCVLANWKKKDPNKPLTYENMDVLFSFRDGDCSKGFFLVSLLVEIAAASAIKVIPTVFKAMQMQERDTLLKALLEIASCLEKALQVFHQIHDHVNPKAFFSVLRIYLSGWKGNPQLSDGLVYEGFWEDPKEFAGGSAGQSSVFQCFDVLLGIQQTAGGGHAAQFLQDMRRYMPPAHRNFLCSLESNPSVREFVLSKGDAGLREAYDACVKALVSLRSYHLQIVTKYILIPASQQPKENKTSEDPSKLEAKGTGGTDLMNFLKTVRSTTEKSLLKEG
- protocol.text: SKOV3 kynurenine cell-based assay (IDO induced by IFN-γ)
- Design: IDO expression was induced in the SKOV3 cells by the addition of 500 ng/ml IFN-γ; endogenous in cells; host or cells: SKOV3 (human ovarian adenocarcinoma), induced with IFN-γ
- measurement.conditions: SKOV3 human ovarian adenocarcinoma cells, 500 ng/ml IFN-γ, 48 hours, 500 μM L-tryptophan; read-out: SKOV3 Kynurenine cell based assay pIC50 (converted)
Measured IC50, listed per entry for reference.

Look up and report measured IC50 for this entry: NC(=O)N1CCC(c2cc(Cl)cc3[nH]ncc23)CC1
3.24 to 31.6 µM

Please give the documented IC50 of CC(=O)N1CCOC2(CCN(c3cc(Cl)cc4[nH]ncc34)CC2)C1
> 100 µM

Quote IC50 reported for Clc1cc(N2CCc3cn[nH]c3C2)c2cn[nH]c2c1 please.
> 100 µM

Quickly give me recorded IC50 for O=C1CC2(CCN(c3cc(Cl)cc4[nH]ncc34)CC2)CN1
3.24 to 31.6 µM

Return the recorded IC50 value; entry: O=C1NC(=O)C(C2CCN(c3cc(Cl)cc4[nH]ncc34)CC2)N1 (stereo not drawn)
> 100 µM

More entries:
Identify IC50 associated with the compound Cc1cc(-c2cc(Cl)cc3[nH]ncc23)ccc1S(C)(=O)=O
3.24 to 31.6 µM

# return recorded IC50 for input CS(=O)(=O)NCc1ccc(-c2cc(Cl)cc3[nH]ncc23)cc1
3.24 to 31.6 µM

Tell us which IC50 value is on record for CS(=O)(=O)N1CCN(c2cc(C(F)(F)F)cc3[nH]ncc23)C2CCCCC21 (stereo not drawn) [Compound 340]
32.4 to 100 µM

Determine from records and report IC50 for CS(=O)(=O)N1CCN(c2cc(Cl)cc3[nH]ncc23)C2CCCCC21 (single isomer, unassigned) [Compound 385]
32.4 to 100 µM

For the compound COc1cc(N2CCN(S(C)(=O)=O)CC2)c2cn[nH]c2c1 , report IC50.
> 100 µM

Entry O=C1NC2(CCN(c3cc(Cl)cc4[nH]ncc34)CC2)C(=O)N1CC(F)(F)F needs its IC50 filled in; supply it.
< 3.16 µM

Given Cc1c2c(nn1C)CCN(c1cc(Cl)cc3[nH]ncc13)C2 , respond with its IC50.
3.24 to 31.6 µM

Consider the compound OC(CC1CCOCC1)c1cc(Cl)cc2[nH]ncc12 (stereo not drawn) and give its recorded IC50.
32.4 to 100 µM

Data origin, for the record: patent US10590086B2
